target: DYRK1A (Homo sapiens, UniProt Q13627); assay: FRET-based LanthaScreen Eu Kinase Binding Assay for DYRK1A; settings: compound at 1000 nM, duplicates; read-out: % DYRK1A Inhibition 1000 nM
quantity name: inhibition at 1 µM (%)

Cc1nccc2c1[nH]c1cc(OCCCCC(N)=O)ccc12; 88
CC(=O)NCCOc1ccc2c(c1)[nH]c1c(C)nccc12; 49
Cc1nccc2c1[nH]c1cc(OCCCCC(=O)O)ccc12; 44
Cc1nccc2c1[nH]c1cc(OCCN)ccc12; 25
Cc1nccc2c1[nH]c1cc(OCCCNC(=O)OC(C)(C)C)ccc12; 50

(A) Cc1nccc2c1[nH]c1cc(OCCOCCN)ccc12
(B) Cc1nccc2c1[nH]c1cc(OCCCCCC(N)=O)ccc12
(C) Cc1nccc2c1[nH]c1cc(OCCCC(=O)O)ccc12
Problem: Which order do these items take when sorted by rising inhibition at 1 µM? List them. Please list the labels in the order you were asked to rank them.
Solution: C, A, B

(P) Cc1nccc2c1[nH]c1cc(OCC(N)=O)ccc12
(Q) Cc1nccc2c1[nH]c1cc(OCCOCCNC(=O)OC(C)(C)C)ccc12
Problem: Could you point out whether the larger inhibition at 1 µM belongs to P or to Q ? Please identify the chosen entry by its label.
Solution: Q

(1) CC(=O)NCCOCCOc1ccc2c(c1)[nH]c1c(C)nccc12
(2) Cc1nccc2c1[nH]c1cc(OCCCCCC(=O)O)ccc12
Problem: Could you point out whether the larger inhibition at 1 µM belongs to 1 or to 2 ? Please identify the chosen entry by its label.
Solution: 2

(I) Cc1nccc2c1[nH]c1cc(OCCCCN)ccc12
(II) COC(=O)CCCCOc1ccc2c(c1)[nH]c1c(C)nccc12
Problem: Which entry shows the lesser value of inhibition at 1 µM here, I or II ? Please identify the chosen entry by its label.
Solution: I
